Can you tell me EC50 for the items I'm about to list?
- measured target: Glucocorticoid receptor (Homo sapiens, UniProt P04150)
- Sequence (P04150 whole entry): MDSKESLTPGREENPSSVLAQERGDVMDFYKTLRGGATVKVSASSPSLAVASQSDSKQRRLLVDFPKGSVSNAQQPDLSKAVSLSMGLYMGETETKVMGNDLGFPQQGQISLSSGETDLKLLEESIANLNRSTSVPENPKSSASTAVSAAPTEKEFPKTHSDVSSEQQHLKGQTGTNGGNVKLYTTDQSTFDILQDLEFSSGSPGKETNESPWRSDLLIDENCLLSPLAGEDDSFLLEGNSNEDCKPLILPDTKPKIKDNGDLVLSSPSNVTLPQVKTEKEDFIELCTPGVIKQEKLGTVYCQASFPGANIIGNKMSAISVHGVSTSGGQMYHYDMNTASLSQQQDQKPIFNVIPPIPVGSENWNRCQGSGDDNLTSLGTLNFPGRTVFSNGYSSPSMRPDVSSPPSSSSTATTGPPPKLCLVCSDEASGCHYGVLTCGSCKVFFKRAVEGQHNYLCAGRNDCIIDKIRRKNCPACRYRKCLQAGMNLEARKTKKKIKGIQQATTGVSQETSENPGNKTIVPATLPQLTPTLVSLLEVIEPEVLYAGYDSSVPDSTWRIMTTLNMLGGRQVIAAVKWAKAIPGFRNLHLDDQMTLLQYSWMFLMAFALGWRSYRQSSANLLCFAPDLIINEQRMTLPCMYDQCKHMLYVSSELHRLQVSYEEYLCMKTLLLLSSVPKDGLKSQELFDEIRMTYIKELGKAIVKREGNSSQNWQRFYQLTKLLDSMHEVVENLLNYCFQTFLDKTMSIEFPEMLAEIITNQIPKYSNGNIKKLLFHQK
- Type: functional, cell-based, H4IIEC3
- Description: Agonist activity at GR expressed in rat H4IIEC3 cells assessed as induction of PEPCK transactivation by luciferase reporter gene assay
Number in nM, nothing else.

// field: EC50; key: CNC(=O)O[C@@H]1[C@@H](C)c2c(cc(F)c(-c3cccc4cc[nH]c34)c2F)NC1(C)C (racemic) ; value = 199

`C[C@H]1c2c(cc(F)c(-c3cccc4c(Cl)c[nH]c34)c2F)NC(C)(C)[C@@H]1OC(=O)Nc1ccccc1` yielded EC50 of 379

What the record says about C[C@H]1c2c(cc(F)c(-c3cccc4cc[nH]c34)c2F)NC(C)(C)[C@@H]1O (racemic) : EC50 is 98

Record `C[C@H]1c2c(cc(F)c(-c3cccc4cc[nH]c34)c2F)NC(C)(C)[C@@H]1OC(=O)Nc1ccc(N(C)C)cc1` , field EC50: 361

So for C[C@H]1c2c(cc(F)c(-c3cccc4cc[nH]c34)c2F)NC(C)(C)[C@@H]1OC(=O)Nc1cccc(C#N)c1 (racemic) , the logged EC50 turned out to be 287

Notebook: `C[C@H]1c2c(cc(F)c(-c3cccc4c(Cl)c[nH]c34)c2F)NC(C)(C)[C@@H]1OC(=O)Nc1ccc(C#N)cc1` , EC50 read as 272

GET /value?item= CC(C)NC(=O)O[C@@H]1[C@@H](C)c2c(cc(F)c(-c3cccc4c(Cl)c[nH]c34)c2F)NC1(C)C (racemic) &field=EC50 returns 361

// field: EC50; key: CC(=O)c1cccc(NC(=O)O[C@@H]2[C@@H](C)c3c(cc(F)c(-c4cccc5cc[nH]c45)c3F)NC2(C)C)c1 (racemic) ; value = 333

Value of EC50 reported for the molecule C[C@H]1c2c(cc(F)c(-c3cccc4c(Cl)c[nH]c34)c2F)NC(C)(C)[C@@H]1OC(=O)NCc1ccccc1 (racemic) is 454

EC50 measured on C[C@H]1c2c(cc(F)c(-c3cccc4c(Cl)c[nH]c34)c2F)NC(C)(C)[C@@H]1OC(=O)NC1CCCCC1 (racemic) = 435

Lookup result for `C[C@H]1c2c(cc(F)c(-c3cccc4cc[nH]c34)c2F)NC(C)(C)[C@@H]1OC(=O)Nc1ccc2c(c1)OCO2` ; measured EC50: 874

For `COC(=O)c1ccc(NC(=O)O[C@@H]2[C@@H](C)c3c(cc(F)c(-c4cccc5cc[nH]c45)c3F)NC2(C)C)cc1` the molecule record lists EC50 as 267

Measured EC50 of `COc1ccc(NC(=O)O[C@@H]2[C@@H](C)c3c(cc(F)c(-c4cccc5cc[nH]c45)c3F)NC2(C)C)cc1Cl` : 687

Form field EC50, entry CC(=O)c1ccc(NC(=O)O[C@@H]2[C@@H](C)c3c(cc(F)c(-c4cccc5cc[nH]c45)c3F)NC2(C)C)cc1 (racemic) : 182

get_value(item= CNC(=O)O[C@@H]1[C@@H](C)c2c(cc(F)c(-c3cccc4c(Cl)c[nH]c34)c2F)NC1(C)C (racemic) , readout=EC50) returns 463

Per the record, `COc1ccc(NC(=O)O[C@@H]2[C@@H](C)c3c(cc(F)c(-c4cccc5c(Cl)c[nH]c45)c3F)NC2(C)C)cc1Cl` has EC50 of 283
